Source: PubChem BioAssay AID1159580

# procedure details: chemical genetic growth profiling, strain panel (AID 1159580);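 note: tested at 20 µM; growth read once vehicle control cultures reached saturation at 30 °C; lower values mean less growth of the strain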
# measurement context: S. cerevisiae deletion strains, growth OD, locus YOR070C, strain gyp1
In all, about 5,500 compounds went through this assay and about 2,000 (36%) were called active. Inconclusive results (about 18%) are left out. Cut-off read from the data, not from the text of the source: active = normalized growth mostly below about 0.91 (no sharp cut-off); inconclusive = no clear call, values can overlap the other calls; inactive = mostly above about 0.92. Some of the results follow.
Classes to choose from: True = active, False = inactive

Input: Outcome? COc1cc(OC)c2ccc(=O)oc2c1
Output: False

Input: Same question, CC(C)(C)NCC(O)c1cc(Cl)c(N)c(Cl)c1 (stereo not given) this time
Output: False

Input: Same question, O=c1ccc2c(O)c3ccoc3cc2o1 this time
Output: False

Input: Same question, CCOCN(C(=O)CCl)c1c(C)cccc1CC this time
Output: False

Input: Same question, OCC(O)C(O)C(O)C(O)C(O)CO (stereo not given) this time
Output: False

Input: Same question, NC(=NCCC[C@H](N)C(=O)O)N[N+](=O)[O-] this time
Output: False

Input: Same question, COc1cc(OC)c2c(=O)c(O)c(-c3ccc(OC)c(OC)c3)oc2c1 this time
Output: False

Input: Same question, O=C1C=C2C(=CCOC2O)O1 (stereo not given) this time
Output: True

Input: Same question, N#Cc1nn(-c2c(Cl)cc(C(F)(F)F)cc2Cl)c(N)c1S(=O)C(F)(F)F (stereo not given) this time
Output: False

Input: Same question, O=C(Cc1cccs1)NC1C(=O)N2C(C(=O)[O-])=C(C[n+]3ccccc3)CSC12 (stereo not given) this time
Output: False

Input: Same question, NC(=O)c1ncn([C@@H]2O[C@H](CO)[C@@H](O)[C@H]2O)n1 this time
Output: False

Input: Same question, CCCCOc1cc(C(=O)NCCN(CC)CC)c2ccccc2n1 this time
Output: False

Input: Same question, C[C@@H]1O[C@@H](OC[C@H]2OC(Oc3c(-c4ccc(OCCO)c(OCCO)c4)oc4cc(OCCO)cc(O)c4c3=O)[C@H](O)[C@@H](O)[C@@H]2O)[C@H](O)[C@H](O)[C@H]1O (stereo not given in full) this time
Output: False

Input: Same question, CO[C@@]1(NC(=O)C(C(=O)O)c2ccc(O)cc2)C(=O)N2C(C(=O)O)=C(CSc3nnnn3C)CO[C@@H]21 (stereo not given in full) this time
Output: False

Input: Same question, O=C1[O][Bi][O]c2ccccc21 this time
Output: False
